Data provenance: patent US20250376471A1

- Method Description: Visual solubility of Form B crystal in common solvents at RT
- Assay type: physicochemical
- Condition: organic solvent or mixture, thermodynamic from solid; Dichloromethane (DCM); visually estimated

{"Compound": "CC(C)(C=C(C#N)C(=O)N1CCCC(n2nc(-c3ccc(Oc4ccccc4)cc3F)c3c(N)ncnc32)C1)N1CCN(C2COC2)CC1 (stereo not shown) [Compound (I) Form B]", "solubility at 15 min": "> 100 mg/mL"}

----------
- Method Description: Comparative solubility in aqueous buffers (HPLC)
- Assay type: physicochemical
- Condition: 50 mM Acetate, 24 hr
Measured Quantity: pH

{"Compound": "CC(C)(C=C(C#N)C(=O)N1CCCC(n2nc(-c3ccc(Oc4ccccc4)cc3F)c3c(N)ncnc32)C1)N1CCN(C2COC2)CC1 (centres unmarked) [Compound (I) amorphous]", "Measured Quantity": "pH", "Endpoint Value": 4.5}
{"Compound": "CC(C)(C=C(C#N)C(=O)N1CCCC(n2nc(-c3ccc(Oc4ccccc4)cc3F)c3c(N)ncnc32)C1)N1CCN(C2COC2)CC1 (centres unmarked) [Compound (I) Form B]", "Measured Quantity": "pH", "Endpoint Value": 4.5}
{"Compound": "CC(C)(C=C(C#N)C(=O)N1CCCC(n2nc(-c3ccc(Oc4ccccc4)cc3F)c3c(N)ncnc32)C1)N1CCN(C2COC2)CC1.O=C(O)C(=O)O (centres unmarked) [Oxalate salt]", "Measured Quantity": "pH", "Endpoint Value": 4.27}
{"Compound": "CC(C)(C=C(C#N)C(=O)N1CCCC(n2nc(-c3ccc(Oc4ccccc4)cc3F)c3c(N)ncnc32)C1)N1CCN(C2COC2)CC1.O=C(O)/C=C\\C(=O)O (centres unmarked) [Maleate]", "Measured Quantity": "pH", "Endpoint Value": 4.0}
{"Compound": "CC(C)(C=C(C#N)C(=O)N1CCCC(n2nc(-c3ccc(Oc4ccccc4)cc3F)c3c(N)ncnc32)C1)N1CCN(C2COC2)CC1.Cl (centres unmarked) [HCl salt]", "Measured Quantity": "pH", "Endpoint Value": 4.4}

----------
- Method Description: Visual solubility of Form B crystal in common solvents at RT
- Type: physicochemical
- Condition: organic solvent or mixture, thermodynamic from solid; Toluene; visually estimated

{"Molecule": "CC(C)(C=C(C#N)C(=O)N1CCCC(n2nc(-c3ccc(Oc4ccccc4)cc3F)c3c(N)ncnc32)C1)N1CCN(C2COC2)CC1 (stereo not shown) [Compound (I) Form B]", "solubility at 15 min": "< 20 mg/mL"}

----------
- Method Description: Visual solubility of Form B crystal in common solvents at RT
- Assay type: physicochemical
- Condition: organic solvent or mixture, thermodynamic from solid; 4-Methyl-2-pentanone (MIBK); visually estimated
- From the text: The solubility was visually estimated in 12 common solvents at RT.
Measured Quantity: solubility at 15 min

{"Molecule": "CC(C)(C=C(C#N)C(=O)N1CCCC(n2nc(-c3ccc(Oc4ccccc4)cc3F)c3c(N)ncnc32)C1)N1CCN(C2COC2)CC1 (stereo not shown) [Compound (I) Form B]", "Endpoint Value": "20 to 100 mg/mL"}

----------
- Method Description: Visual solubility of Form B crystal in common solvents at RT
- Assay type: physicochemical
- Condition: organic solvent or mixture, thermodynamic from solid; Acetonitrile (MeCN); visually estimated
Measured Quantity: solubility at 15 min

{"Compound": "CC(C)(C=C(C#N)C(=O)N1CCCC(n2nc(-c3ccc(Oc4ccccc4)cc3F)c3c(N)ncnc32)C1)N1CCN(C2COC2)CC1 (stereo not shown) [Compound (I) Form B]", "Measured Quantity": "solubility at 15 min", "Endpoint Value": "20 to 100 mg/mL"}
